Reported values of binding signal for individual entries
molecular target: AGO2 T357M (Homo sapiens, UniProt Q9UKV8 1-859, T357M;S387D;S824A;S828D;S831D;S834A); experiment: RNA Bind-n-Seq (nitrocellulose filter binding and sequencing); miR-122 guide loaded in AGO2; 60 min incubation; 30 mM Tris pH 8.0, 100 mM potassium acetate, 2 mM magnesium acetate, 0.5 mM TCEP, 0.005% NP-40, 0.01 mg/ml yeast tRNA; 3 nM AGO2-miR-122, 100 nM RNA library; 60; high values mean tight binding; conditions: protein: recombinant; tags: His6 (N-terminal, pFastBac HTA)
Sequence (Q9UKV8 whole entry T357M/S387D/S824A/S828D/S831D/S834A): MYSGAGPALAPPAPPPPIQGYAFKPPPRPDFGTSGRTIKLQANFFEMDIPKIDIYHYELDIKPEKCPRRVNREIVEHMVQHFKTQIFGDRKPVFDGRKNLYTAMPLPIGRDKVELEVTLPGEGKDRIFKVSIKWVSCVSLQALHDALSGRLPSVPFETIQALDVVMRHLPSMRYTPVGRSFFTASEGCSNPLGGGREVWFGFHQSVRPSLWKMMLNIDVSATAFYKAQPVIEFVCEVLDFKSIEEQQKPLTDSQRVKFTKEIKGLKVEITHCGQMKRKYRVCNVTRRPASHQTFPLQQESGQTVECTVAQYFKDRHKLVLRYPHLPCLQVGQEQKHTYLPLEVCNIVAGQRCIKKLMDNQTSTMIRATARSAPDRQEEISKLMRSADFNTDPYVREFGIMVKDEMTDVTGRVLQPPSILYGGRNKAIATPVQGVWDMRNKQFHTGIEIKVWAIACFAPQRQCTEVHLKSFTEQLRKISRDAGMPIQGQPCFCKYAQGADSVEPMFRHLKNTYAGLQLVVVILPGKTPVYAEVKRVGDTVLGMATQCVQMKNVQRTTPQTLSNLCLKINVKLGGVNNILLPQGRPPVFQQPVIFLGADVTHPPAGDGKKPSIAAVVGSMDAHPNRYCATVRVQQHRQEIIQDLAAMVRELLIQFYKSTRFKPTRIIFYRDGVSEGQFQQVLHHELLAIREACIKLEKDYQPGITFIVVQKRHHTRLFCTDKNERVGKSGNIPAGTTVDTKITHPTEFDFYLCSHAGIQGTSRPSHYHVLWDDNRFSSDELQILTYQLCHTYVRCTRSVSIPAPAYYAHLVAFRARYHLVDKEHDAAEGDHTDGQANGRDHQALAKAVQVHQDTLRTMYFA

Before answering, review these 3 worked examples.
Binder: ATACCCCG (ssRNA, constant regions annealed to DNA blockers; guide miR-122 5' phosphate) RNA 1: GAGUUCUACAGUCCGACGAUCCCAACAUACCCCGCACCUGGAAUUCUCGGGUGCCAA RNA 2: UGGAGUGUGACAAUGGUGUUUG DNA 1: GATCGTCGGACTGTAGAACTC DNA 2: TTGGCACCCGAGAATTCCA
binding signal: 0.471 fold enrichment over input

Binder: GCGTTCCA (ssRNA, constant regions annealed to DNA blockers; guide miR-122 5' phosphate) RNA 1: GAGUUCUACAGUCCGACGAUCCCAACGCGUUCCACACCUGGAAUUCUCGGGUGCCAA RNA 2: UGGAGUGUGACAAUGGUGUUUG DNA 1: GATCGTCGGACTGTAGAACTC DNA 2: TTGGCACCCGAGAATTCCA
binding signal: 0.592 fold enrichment over input

Binder: ATGCCCCA (ssRNA, constant regions annealed to DNA blockers; guide miR-122 5' phosphate) RNA 1: GAGUUCUACAGUCCGACGAUCCCAACAUGCCCCACACCUGGAAUUCUCGGGUGCCAA RNA 2: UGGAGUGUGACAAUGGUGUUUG DNA 1: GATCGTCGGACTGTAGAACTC DNA 2: TTGGCACCCGAGAATTCCA
binding signal: 0.652 fold enrichment over input

Consider the additional binder presented here.
Exercise: Would you kindly share the measured binding signal for GCGTTTTA (ssRNA, constant regions annealed to DNA blockers; guide miR-122 5' phosphate) RNA 1: GAGUUCUACAGUCCGACGAUCCCAACGCGUUUUACACCUGGAAUUCUCGGGUGCCAA RNA 2: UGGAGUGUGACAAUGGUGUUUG DNA 1: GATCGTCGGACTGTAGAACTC DNA 2: TTGGCACCCGAGAATTCCA ?
Key: 0.582 fold enrichment over input
